protocol.details: Cytotoxicity against human SH-SY5Y cells assessed as reduction in cell viability incubated for 24 hrs by MTT assay
Assay type: toxicity, cell-based
Measured IC50 at 24 h, listed per entry.
Report the value in µM with no unit label.

O=C1NCCCc2c1c1ccccc1n2CCCCCCCN1CCN(CCc2ccccc2)CC1 60

Quick note, IC50 at 24 h for O=C1NCCCc2c1c1ccccc1n2CCCCCN1CCN(CCc2ccccc2)CC1 landed at 88

* * *

assayed.system: Cholinesterase (Homo sapiens, UniProt P06276)
Sequence (P06276 whole entry): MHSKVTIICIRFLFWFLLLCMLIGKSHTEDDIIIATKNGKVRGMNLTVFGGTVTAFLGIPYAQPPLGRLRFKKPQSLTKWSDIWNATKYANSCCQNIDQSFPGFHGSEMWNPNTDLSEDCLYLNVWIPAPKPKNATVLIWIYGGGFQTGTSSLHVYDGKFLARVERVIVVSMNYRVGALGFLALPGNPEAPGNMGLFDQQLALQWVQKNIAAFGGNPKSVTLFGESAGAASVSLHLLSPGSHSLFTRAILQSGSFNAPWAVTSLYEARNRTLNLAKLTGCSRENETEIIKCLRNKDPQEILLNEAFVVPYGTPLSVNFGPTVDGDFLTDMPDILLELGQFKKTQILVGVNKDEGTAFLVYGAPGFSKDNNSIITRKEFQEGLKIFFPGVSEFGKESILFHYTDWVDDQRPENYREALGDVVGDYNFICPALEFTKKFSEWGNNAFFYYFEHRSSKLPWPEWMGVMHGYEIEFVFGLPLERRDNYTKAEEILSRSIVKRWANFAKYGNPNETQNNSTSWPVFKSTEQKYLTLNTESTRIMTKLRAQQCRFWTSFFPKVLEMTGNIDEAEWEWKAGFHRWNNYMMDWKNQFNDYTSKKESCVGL
Measured pIC50, listed per entry.
Please keep in mind that pIC50 is minus log10 of the molar concentration; only the number is needed.

O=C1NCCCc2c1c1ccccc1n2CCCCCN1CCN(CCc2ccccc2)CC1 6.72

Here is another molecule to look at.
# pIC50 measured on Cholinesterase (Homo sapiens, UniProt P06276) for item O=C1NCCCc2c1c1ccccc1n2CCCCCCCN1CCN(CCc2ccccc2)CC1 = 7.14

* * *

assayed.system: Albumin (Homo sapiens, UniProt P02768)
Sequence (P02768 whole entry): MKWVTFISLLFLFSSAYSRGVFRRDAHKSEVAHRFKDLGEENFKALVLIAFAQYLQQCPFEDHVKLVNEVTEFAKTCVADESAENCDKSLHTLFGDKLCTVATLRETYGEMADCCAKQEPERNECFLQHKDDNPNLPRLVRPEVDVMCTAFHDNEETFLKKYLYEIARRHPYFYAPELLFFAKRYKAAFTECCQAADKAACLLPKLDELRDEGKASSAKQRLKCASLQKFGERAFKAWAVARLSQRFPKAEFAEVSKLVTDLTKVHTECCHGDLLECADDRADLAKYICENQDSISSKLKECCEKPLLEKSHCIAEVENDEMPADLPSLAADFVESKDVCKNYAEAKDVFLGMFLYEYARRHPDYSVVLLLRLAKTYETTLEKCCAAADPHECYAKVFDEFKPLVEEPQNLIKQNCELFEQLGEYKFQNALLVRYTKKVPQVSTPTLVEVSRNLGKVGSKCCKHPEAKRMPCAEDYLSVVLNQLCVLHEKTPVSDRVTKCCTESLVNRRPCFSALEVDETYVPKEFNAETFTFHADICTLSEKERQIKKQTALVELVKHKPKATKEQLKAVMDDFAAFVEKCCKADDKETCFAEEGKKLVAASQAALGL
protocol.details: Binding affinity to human serum albumin assessed as equilibrium dissociation constant by SPR analysis
Measured pKd, listed per entry.
Please keep in mind that pKd is minus log10 of the molar concentration; only the number is needed.

O=C1NCCCc2c1c1ccccc1n2CCCCCN1CCN(CCc2ccccc2)CC1 5.17

Quick note, pKd for O=C1NCCCc2c1c1ccccc1n2CCCCCCCN1CCN(c2ccccc2)CC1 landed at 5.79

Quick note, pKd for O=C1NCCCc2c1c1ccccc1n2CCc1ccccc1 landed at 6.07

Quick note, pKd for O=C1NCCCc2c1c1ccccc1n2CCCCCCCN1CCN(CCc2ccccc2)CC1 landed at 5.45

* * *

assayed.system: Cholinesterase (Equus caballus)
Sequence (P81908 whole entry): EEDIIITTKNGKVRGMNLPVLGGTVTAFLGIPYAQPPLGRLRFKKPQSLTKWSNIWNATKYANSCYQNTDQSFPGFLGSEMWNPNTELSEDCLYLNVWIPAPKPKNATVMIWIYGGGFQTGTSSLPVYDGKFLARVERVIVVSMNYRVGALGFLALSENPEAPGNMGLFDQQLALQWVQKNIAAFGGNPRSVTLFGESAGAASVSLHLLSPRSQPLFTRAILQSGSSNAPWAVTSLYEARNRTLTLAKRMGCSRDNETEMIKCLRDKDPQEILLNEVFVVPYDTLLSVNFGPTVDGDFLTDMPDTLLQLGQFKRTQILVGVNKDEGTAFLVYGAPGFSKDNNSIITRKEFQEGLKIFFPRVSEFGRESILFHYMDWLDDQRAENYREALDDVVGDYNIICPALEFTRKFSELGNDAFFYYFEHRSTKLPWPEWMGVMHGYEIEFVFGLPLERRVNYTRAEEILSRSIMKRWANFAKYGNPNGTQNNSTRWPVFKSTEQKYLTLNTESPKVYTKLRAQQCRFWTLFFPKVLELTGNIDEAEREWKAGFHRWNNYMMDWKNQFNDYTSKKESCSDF
protocol.details: Inhibition of equine serum BuChE using butyrylthiocholine iodide as substrate preincubated for 20 mins followed by substrate addition and measured after 10 mins by DTNB based Ellman's method
pIC50: −log10 of the molar value.
Classify by measured pIC50: True if it is equal to or exceeds 6, False if it is smaller.

Some solved entries appear below for comparison.
O=C1NCCCc2c1c1ccccc1n2CCCCCN1CCN(c2ccccc2)CC1 False
O=C1NCCCc2c1c1ccccc1n2CCCCCCCN1CCN(Cc2ccccc2)CC1 True
O=C1NCCCc2c1c1ccccc1n2CCCCCCCN1CCN(CCc2ccccc2)CC1 True

Then this compound:
Reported pIC50 at or above 6? O=C1NCCCc2c1c1ccccc1n2CCCCCCCN1CCN(c2ccc(F)cc2)CC1
False

* * *

assayed.system: Amyloid-beta precursor protein (Homo sapiens) (UniProt P05067)
Sequence (P05067 whole entry): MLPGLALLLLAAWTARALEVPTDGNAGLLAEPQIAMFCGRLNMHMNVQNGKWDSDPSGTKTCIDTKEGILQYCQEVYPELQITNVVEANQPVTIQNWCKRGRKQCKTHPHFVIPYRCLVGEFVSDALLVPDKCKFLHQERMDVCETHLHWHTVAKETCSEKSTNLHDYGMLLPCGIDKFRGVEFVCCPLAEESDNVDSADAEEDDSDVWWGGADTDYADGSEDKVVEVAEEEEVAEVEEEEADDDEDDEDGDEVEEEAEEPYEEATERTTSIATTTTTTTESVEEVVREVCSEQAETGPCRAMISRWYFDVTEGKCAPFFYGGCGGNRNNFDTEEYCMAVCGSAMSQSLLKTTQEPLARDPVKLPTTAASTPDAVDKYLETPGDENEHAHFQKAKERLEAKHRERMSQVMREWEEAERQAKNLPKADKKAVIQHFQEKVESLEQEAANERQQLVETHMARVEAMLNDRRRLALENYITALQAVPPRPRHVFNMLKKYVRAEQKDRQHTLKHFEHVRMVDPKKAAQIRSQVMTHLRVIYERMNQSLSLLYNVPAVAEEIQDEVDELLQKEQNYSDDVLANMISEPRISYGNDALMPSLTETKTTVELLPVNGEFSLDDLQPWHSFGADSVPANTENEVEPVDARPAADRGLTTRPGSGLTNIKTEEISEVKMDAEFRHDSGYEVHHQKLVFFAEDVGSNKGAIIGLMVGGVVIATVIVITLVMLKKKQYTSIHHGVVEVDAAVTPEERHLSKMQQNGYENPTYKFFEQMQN
protocol.details: Inhibition of self induced amyloid-beta (1 to 40) (unknown origin) aggregation at 100 uM incubated for 2 hrs by ThT fluorescence based spectrofluorimetric analysis relative to control
Classify by measured inhibition: 1.0 if it is equal to or exceeds 20%, 0.0 if it is smaller.

Some solved entries appear below for comparison.
O=C1NCCCc2c1c1ccccc1n2CCCCCCCN1CCN(CCc2ccccc2)CC1 1.0
O=C1NCCCc2c1c1ccccc1n2CCCCCN1CCN(CCc2ccccc2)CC1 0.0
O=C1NCCCc2c1c1ccccc1n2CCN1CCN(Cc2ccccc2)CC1 0.0
O=C1NCCCc2c1c1ccccc1n2CCCCN1CCN(CCc2ccccc2)CC1 1.0
O=C1NCCCc2c1c1ccccc1n2CCCCCN1CCN(Cc2ccccc2)CC1 1.0

Then this compound:
Reported inhibition at or above 20%? O=C1NCCCc2c1c1ccccc1n2CCN1CCN(CCc2ccccc2)CC1
1.0
